Target: mushroom tyrosinase (Agaricus bisporus, UniProt C7FF04)
Sequence (C7FF04 1-392): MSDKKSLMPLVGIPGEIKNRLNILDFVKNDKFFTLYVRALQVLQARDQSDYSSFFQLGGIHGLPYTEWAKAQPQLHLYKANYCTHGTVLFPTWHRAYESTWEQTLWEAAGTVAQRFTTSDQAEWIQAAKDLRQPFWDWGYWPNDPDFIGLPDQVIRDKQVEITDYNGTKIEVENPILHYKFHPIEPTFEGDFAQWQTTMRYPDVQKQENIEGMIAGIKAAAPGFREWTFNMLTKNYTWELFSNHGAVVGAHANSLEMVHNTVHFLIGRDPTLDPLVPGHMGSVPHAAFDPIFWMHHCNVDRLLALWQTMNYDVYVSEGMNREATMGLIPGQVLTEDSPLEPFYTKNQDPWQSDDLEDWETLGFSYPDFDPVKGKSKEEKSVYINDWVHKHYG
Experiment: Mushroom tyrosinase enzyme inhibition assay (dopachrome absorbance at 475 nm)
Type: biochemical
experimental_endpoint: Ki

Known Ki results, listed for orientation:
Kindly note the recorded Ki for Nc1nc2nc[nH]c2c(=O)[nH]1 [Guanine, guanine] , which is > 1 mM

Kindly note the recorded Ki for O=c1[nH]cnc2nc[nH]c12 [Hypoxanthine, hypoxanthine] , which is > 1 mM

Further cases:
Kindly note the recorded Ki for Cn1cnc([N+](=O)[O-])c1Sc1ncnc2nc[nH]c12 [Azathioprine, azathioprine] , which is > 1 mM
